# Assay Comment: Acute toxicity test, oral, mice
# Type: in vivo
# Assay Conditions: male, mouse, in vivo, ICR mice, single administration, 7 days observation

{"columns": ["Molecule", "LD50 at 7 days"],
 "data": [
  ["C/C=C(\\C)C(=O)OC[C@]1(O)[C@H]2C[C@H]2[C@]2(C)[C@@H]3CC4=C5[C@H](/C(=C(\\C)C(=O)OC)C(=O)[C@H](O)[C@@]5(C)[C@@H]5C[C@H]45)[C@@]34OC(=O)C(COC(C)=O)=C4C[C@@H]12 [CHE-23C]", "> 540 mg/kg"]
]}
